system: MCF7; experiment: NCI tumour cell line growth inhibition, 48 h
The source made the active and inactive calls. Rule as the data show it: active = GI50 up to about 1.1 µM and inactive = higher.
Parameter Measured: GI50

// batch mode: one GI50 value per listed entry
1. C[C@@H](CCO)OC1OC(COC(=O)C(C)(C)C)C(OC(=O)C(C)(C)C)C(OC(=O)C(C)(C)C)C1OC(=O)C(C)(C)C (stereo partly specified)
2. CC1=CC(C)C/C=C/C2C3OC3(C)C(C)C3C(Cc4c[nH]c5ccccc45)NC(=O)C23C(=O)C=CC(=O)C1O (stereo unspecified)

1: 15.1 µM (inactive); 2: 5.78 µM (inactive)

// batch mode: one GI50 value per listed entry
1. CC1(C)C2C=CC1(C)C1(CC2)OCCO1 (stereo unspecified)
2. C(=N\N=C1NCCCCN1)/c1ccc2ccccc2c1
3. CCOC(=O)COC1=Nc2cc(OC)c(OC)c3nc(Cl)cc(c23)C1=O
4. CC(=O)c1ccc(Oc2c3ccccc3nc3ccccc23)cc1
5. Brc1ccc2c(-c3csc(-c4c[nH]c5ccc(Br)cc45)n3)c[nH]c2c1
6. NC(=O)c1c2c(n3ccccc13)C(=O)c1ccccc1C2=O

1. > 100 µM (inactive)
2. 29.4 µM (inactive)
3. 1.7 µM (inactive)
4. 3.22 µM (inactive)
5. 3.82 µM (inactive)
6. > 100 µM (inactive)

// batch mode: one GI50 value per listed entry
1. C=C[C@@]1(C)CC(=O)[C@]2(O)[C@@]3(C)[C@@H](O)CCC(C)(C)[C@@H]3[C@H](O)[C@@H](OC(C)=O)[C@@]2(C)O1
2. Nc1ccc(S(=O)(=O)Nc2nnc(S(N)(=O)=O)s2)cc1
3. CCCCc1ccc(N2C(=O)c3cc([N+](=O)[O-])cnc3S2(=O)=O)cc1
4. O=C(O)c1ccccc1-c1ccccc1C(=O)c1ccccc1
5. COc1cc2c(cc1C)NC(=O)/C2=C/c1cccnc1
6. C[C@@H]1C[C@]2(C[C@@H](C)[C@H]3C(C[C@@]4(C)CCC[C@@H]5C6=C[C@H](CCC34C)OC6=CC(=O)OC5(C)C)O2)OC1=O (stereo partly specified)

["22.1 µM (inactive)", "> 100 µM (inactive)", "59.8 µM (inactive)", "> 100 µM (inactive)", "5.74 µM (inactive)", "> 51.5 µM (inactive)"]

// batch mode: one GI50 value per listed entry
1. Cc1ccc(O)c(C(=O)/C=C/c2ccccc2)c1
2. CC[C@]12C=CCN3CC[C@@]4(c5cc(Br)c(OC)cc5N(C)[C@H]4[C@@](O)(C(=O)N[C@@H](Cc4ccc(O)cc4)C(=O)OC)[C@@H]1O)[C@@H]32
3. O=S(=O)(c1cc(Cl)ccc1Cl)N1CCN(c2cccc(Cl)c2)CC1
4. O=C1OC(=O)c2cc(S(=O)(=O)c3ccc4c(c3)C(=O)OC4=O)ccc21

1: > 100 µM (inactive); 2: 23.1 µM (inactive); 3: > 100 µM (inactive); 4: > 100 µM (inactive)

// batch mode: one GI50 value per listed entry
1. O=[N+]([O-])c1ccc(-c2nc(/C=N/N3CCCCC3)cs2)o1
2. C/C(=C(/C)c1ccc(O)cc1)c1ccc(O)cc1

1: 38.6 µM (inactive); 2: 39.5 µM (inactive)

Would you mind telling me what GI50 value was observed for Cc1occc1C(=S)Nc1ccc(Cl)c(C(=O)OCC(C)C)c1 ? 14.6 µM (inactive)

The reported numbers originate from ChEMBL document CHEMBL1201862.
